# reported IC50; entries follow
Biological target: PTP MU (Homo sapiens)
Construct: made in house; host or cells: E. coli BL-21 (pGEX 6P-1)
Sequence (P28827 831-1186 limits assumed): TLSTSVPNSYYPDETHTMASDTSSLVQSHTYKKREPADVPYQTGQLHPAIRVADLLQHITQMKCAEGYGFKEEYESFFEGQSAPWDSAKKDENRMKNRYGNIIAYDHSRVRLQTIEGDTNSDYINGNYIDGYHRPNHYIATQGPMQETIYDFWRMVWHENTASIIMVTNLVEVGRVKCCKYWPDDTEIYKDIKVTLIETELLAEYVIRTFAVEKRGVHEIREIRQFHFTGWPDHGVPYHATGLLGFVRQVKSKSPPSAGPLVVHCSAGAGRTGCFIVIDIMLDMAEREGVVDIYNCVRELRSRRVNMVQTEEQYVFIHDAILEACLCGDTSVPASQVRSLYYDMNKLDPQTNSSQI
Experiment: PTP IC50 assay, pNPP or FDP as substrate
Assay type: biochemical
Conditions: pNPP or FDP as substrate, 25° C.; read-out: PTP IC50 Mu
Express the result in µM but write the number alone.

If you can, please state the reported IC50 value of "O=C(O)c1cc(Oc2ccc(S(=O)(=O)C(F)(F)F)cc2)cc(Oc2ccc(S(=O)(=O)C(F)(F)F)cc2)c1" .
8.7

Further cases:
If you can, please state the reported IC50 value of "CC(C)(c1ccc(NS(=O)(=O)C(F)(F)F)cc1)c1ccc(C(C)(C)c2ccc(NS(=O)(=O)C(F)(F)F)cc2)cc1" .
6.7

If you can, please state the reported IC50 value of "O=C(O)c1ccc(Oc2cccc(Oc3ccc(S(=O)(=O)C(F)(F)F)cc3[N+](=O)[O-])c2)cc1" .
15.5

If you can, please state the reported IC50 value of "O=S(=O)(Nc1ccc(OCCCOc2ccc(NS(=O)(=O)C(F)(F)F)cc2)cc1)C(F)(F)F" .
37

If you can, please state the reported IC50 value of "CCNc1ccc(S(=O)(=O)C(F)(F)F)cc1NC(=O)Cc1ccc(S(C)(=O)=O)cc1" .
48.8

If you can, please state the reported IC50 value of "CC(C)(COc1ccc(NS(=O)(=O)C(F)(F)F)cc1)COc1ccc(NS(=O)(=O)C(F)(F)F)cc1" .
42

###

Target: PTP ALPHA (Homo sapiens)
Construct: RTPα intracellular domain construct was obtained
Assay: PTP IC50 assay, pNPP or FDP as substrate
Details: 25° C.
Description: The following in vitro assay procedure is preferred to determine the level of activity and effect of the different compounds of the present invention on one or more of the PTPs. […] The catalytic assays described herein are performed in a 96-well format. […] Next, the Michaelis-Menten constant, or Km, is determined for each specific substrate-PTP system. […] All assays were performed using pNPP or FDP as substrate. The optimum pH was determined for each PTP used. […]
measurement.kind: IC50 (µM)
Express the result in µM but write the number alone.

Examples with answers:
If you can, please state the reported IC50 value of "O=C(O)Cc1cccc(CC(=O)Nc2cccc(S(=O)(=O)C(F)(F)F)c2)c1" .
36.2

If you can, please state the reported IC50 value of "O=S(=O)(Nc1ccc(OCCCCOc2ccc(NS(=O)(=O)C(F)(F)F)cc2)cc1)C(F)(F)F" .
46

Let us examine a further case.
If you can, please state the reported IC50 value of "O=S(=O)(Nc1ccc(Oc2ccc(Oc3ccc(NS(=O)(=O)C(F)(F)F)cc3)cc2)cc1)C(F)(F)F" .
11.9

###

Target: PTP MEG2 (Homo sapiens, UniProt P43378)
Construct: made in house; host or cells: E. coli BL-21 (pGEX 6P-1)
Sequence (P43378 262-593 limits assumed): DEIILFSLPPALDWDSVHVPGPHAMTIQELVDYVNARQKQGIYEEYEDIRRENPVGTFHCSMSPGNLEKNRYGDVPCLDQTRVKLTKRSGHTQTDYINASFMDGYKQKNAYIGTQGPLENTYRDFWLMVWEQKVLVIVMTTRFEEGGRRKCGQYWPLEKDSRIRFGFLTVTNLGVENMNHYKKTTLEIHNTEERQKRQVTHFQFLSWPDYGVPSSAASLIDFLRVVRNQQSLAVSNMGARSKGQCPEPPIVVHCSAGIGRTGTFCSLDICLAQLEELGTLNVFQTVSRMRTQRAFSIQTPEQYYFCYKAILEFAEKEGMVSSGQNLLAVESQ
Test: PTP IC50 assay, pNPP or FDP as substrate
Type: biochemical
Conditions: pNPP or FDP as substrate, 25° C.; read-out: PTP IC50 MEG2
measurement.kind: pIC50
# pIC50: negative log10 of molar concentration; output just the value

If you can, please state the reported pIC50 value of "O=S(=O)(c1ccc(COCc2ccc(S(=O)(=O)C(F)(F)F)cc2)cc1)C(F)(F)F" .
4.26

Further cases:
If you can, please state the reported pIC50 value of "CC(C)(c1ccc(NS(=O)(=O)C(F)(F)F)cc1)c1ccc(C(C)(C)c2ccc(NS(=O)(=O)C(F)(F)F)cc2)cc1" .
4.89

If you can, please state the reported pIC50 value of "COC(=O)c1cc(Oc2ccc(S(=O)(=O)C(F)(F)F)cc2[N+](=O)[O-])n(-c2cc(C(F)(F)F)cc(C(F)(F)F)c2)n1" .
4.10

If you can, please state the reported pIC50 value of "O=S(=O)(Nc1ccc(OCCCCOc2ccc(NS(=O)(=O)C(F)(F)F)cc2)cc1)C(F)(F)F" .
4.15

If you can, please state the reported pIC50 value of "Cc1cc(NS(=O)(=O)C(F)(F)F)ccc1CCc1ccc(NS(=O)(=O)C(F)(F)F)cc1C" .
4.07
